Attribution: PubChem BioAssay (NCATS)

Assay: Cell Viability - Hek293 (AID 427);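 note: cells exposed to compound for 40 hours at 37 °C before reading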
Conditions: qHTS
Records with an inconclusive call do not appear. Activity calls are given as the source filed them.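 Rule for the calls: active = compounds whose dose-response curve shows a full or clear partial loss of cell viability, called from curve shape rather than a numeric limit; inconclusive = weak partial curves or an effect only at the top dose; inactive = no dose-dependent loss of viability.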
Outcome codes: active, inactive

>>> qualitative_label("CC(C)(c1ccc(O)cc1)c1ccc(O)cc1")
"inactive"
>>> qualitative_label("COc1cc(C=O)ccc1O")
"inactive"
>>> qualitative_label("O=C(Oc1ccccc1)c1ccccc1O")
"inactive"
>>> qualitative_label("O=C(NO)c1ccccc1")
"inactive"
>>> qualitative_label("CCCC(=O)c1cc(O)c(O)cc1O")
"inactive"
>>> qualitative_label("Cc1ccc(O)cc1")
"inactive"
>>> qualitative_label("Nc1ccc(O)cc1")
"active"
>>> qualitative_label("OCc1c[nH]c2ccccc12")
"inactive"
>>> qualitative_label("Cc1cc(C(C)(C)C)c(O)c(C(C)(C)C)c1")
"inactive"
>>> qualitative_label("CCCCCCCCCCCCCCCC[n+]1ccccc1")
"active"
>>> qualitative_label("Nc1cccc2c(N)cccc12")
"inactive"
>>> qualitative_label("C1=CC2C3C=CC(C3)C2C1 (stereo not drawn)")
"inactive"
>>> qualitative_label("c1ccc2occc2c1")
"inactive"

* * *

Experiment: qHTS of pediatric cancer cell lines to identify multiple opportunities for drug repurposing: Primary screen for TC32 cells (AID 1347089); note: nearly all actives have a fitted effect of over 60% in size
Settings: TC32 Ewing sarcoma viability, CellTiter-Glo luminescence, 48 h; series mostly up to 45.8 µM
Results filed as inconclusive are left out. Activity calls are given as the source filed them. The call rests on the fitted dose curve; in most records, active means well fitted cell-killing curve with a large enough effect; inconclusive means small, poorly fitted or top-dose-only effect; inactive means flat fitted curve, though single readings scatter. Where a SMILES comes first, the peptide text is derived from it.
reported.endpoint: outcome

>>> experimental_result("COC(=O)[C@H]1[C@H]2C[C@@H]3c4[nH]c5cc(OC)ccc5c4CCN3C[C@H]2C[C@@H](OC(=O)/C=C/c2ccc(O)c(OC)c2)[C@@H]1OC")
"inactive"
>>> experimental_result("CCN1C(=O)c2ccccc2C1Nc1ccc(OCCN2CCCCC2)cc1 (centres undefined)")
"inactive"
>>> experimental_result("O=C(C1CCCCC1)N1CC(=O)N2CCCc3ccccc3C2C1 (centres undefined)")
"inactive"
>>> experimental_result("Cc1cc(=O)oc2cc(O[C@@H]3SC[C@@H](O)[C@H](O)[C@H]3O)ccc12")
"inactive"
>>> experimental_result("OC1(c2ccccc2)CCNCC1")
"inactive"
>>> experimental_result("OCc1cccnc1")
"inactive"
>>> experimental_result("Cc1oc(-c2ccccc2)nc1CCC(=O)c1ccc(CC2SC(=O)NC2=O)cc1 (centres undefined)")
"inactive"
>>> experimental_result("CC(C(=O)O)c1ccc(/C=C2\\CCCCC2=O)cc1 (centres undefined)")
"inactive"
>>> experimental_result("CCCC(=O)O[C@]1(C(=O)CCl)[C@@H](C)C[C@H]2[C@@H]3CCC4=CC(=O)C=C[C@]4(C)[C@@]3(F)C(=O)C[C@@]21C")
"inactive"
>>> experimental_result("O=C(O)CCCC[P+](c1ccccc1)(c1ccccc1)c1ccccc1")
"inactive"
>>> experimental_result("O=C(O)CCC(=O)OC[C@@H](NC(=O)C(Cl)Cl)[C@H](O)c1ccc([N+](=O)[O-])cc1")
"inactive"
>>> experimental_result("CCCN(CCC)C(=O)C(CCC(=O)OCCCN1CCN(CCOC(=O)Cc2c(C)n(C(=O)c3ccc(Cl)cc3)c3ccc(OC)cc23)CC1)NC(=O)c1ccccc1 (centres undefined)")
"inactive"
>>> experimental_result("CCOC(=O)O[C@]1(C(=O)OCCl)CC[C@H]2[C@@H]3CCC4=CC(=O)C=C[C@]4(C)[C@H]3[C@@H](O)C[C@@]21C")
"inactive"
>>> experimental_result("N=C(N)c1ccc(OCCCOc2ccc(C(=N)N)cc2)cc1")
"inactive"
>>> experimental_result("Cc1ccc(C(C)OC(=O)C2(C)CCC(C(=O)O)C2(C)C)cc1 (centres undefined)")
"inactive"
>>> experimental_result("COc1ccc2nc(SCc3ncc(C)c(OC)c3C)[nH]c2c1")
"inactive"
>>> experimental_result("Cc1ccc2ccc(Cl)cc2n1")
"inactive"
>>> experimental_result("CC(=O)N[C@@H](CO)C(=O)N[C@@H](CC(=O)O)C(=O)N[C@@H](CCCCN)C(=O)N1CCC[C@H]1C(=O)O (Ac-SDKP-OH)")
"inactive"
>>> experimental_result("O=C(OCC1(COC(=O)c2cccnc2)CCCC(COC(=O)c2cccnc2)(COC(=O)c2cccnc2)C1O)c1cccnc1")
"inactive"
